// pIC50 lookup, one value per entry
- study target: UniProtKB P04150
- Sequence (P04150 whole entry): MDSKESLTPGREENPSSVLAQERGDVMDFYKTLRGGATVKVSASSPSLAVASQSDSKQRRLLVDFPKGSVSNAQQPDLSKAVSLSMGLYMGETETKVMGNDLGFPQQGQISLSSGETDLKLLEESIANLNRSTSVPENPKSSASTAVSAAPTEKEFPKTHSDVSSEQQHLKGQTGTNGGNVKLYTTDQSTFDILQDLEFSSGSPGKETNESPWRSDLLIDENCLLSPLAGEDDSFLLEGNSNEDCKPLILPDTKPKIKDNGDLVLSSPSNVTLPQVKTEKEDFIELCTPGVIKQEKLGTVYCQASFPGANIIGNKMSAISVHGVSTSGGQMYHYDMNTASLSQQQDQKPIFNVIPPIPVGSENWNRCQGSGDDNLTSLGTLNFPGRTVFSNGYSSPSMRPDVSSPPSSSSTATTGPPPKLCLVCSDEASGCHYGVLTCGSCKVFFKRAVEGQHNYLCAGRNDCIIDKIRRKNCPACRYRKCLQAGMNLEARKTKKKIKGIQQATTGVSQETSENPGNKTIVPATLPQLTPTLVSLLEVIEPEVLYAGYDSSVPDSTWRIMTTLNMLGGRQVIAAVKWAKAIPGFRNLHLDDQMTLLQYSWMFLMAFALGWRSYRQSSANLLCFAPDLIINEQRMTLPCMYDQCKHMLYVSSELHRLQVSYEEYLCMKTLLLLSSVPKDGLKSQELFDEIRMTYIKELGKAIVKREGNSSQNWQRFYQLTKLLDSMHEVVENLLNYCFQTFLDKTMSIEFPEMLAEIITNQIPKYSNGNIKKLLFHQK
- test summary: Inhibitory activity against human glucocorticoid receptor (hGR)
pIC50: −log10 of the molar value.

Guide cases for pIC50, answers given:
[[record]]
given_smiles = "C=C1CC[C@@H](Br)C(C)(C)[C@H]1Cc1cc(OC)c(Br)cc1O"
study_target = "UniProtKB P04150"
metric_name = "pIC50"
recorded_value = "< 5.00"

[[record]]
given_smiles = "C=C1CC[C@@H](Br)C(C)(C)[C@@H]1Cc1cc(OC)c(Br)cc1O"
study_target = "UniProtKB P04150"
metric_name = "pIC50"
recorded_value = "< 5.00"


Now consider a different compound.
Query pIC50 for `C=C1CCCC(C)(C)[C@H]1Cc1cc(OC)c(Br)cc1O` < 5.00

====

Each entry below carries its measured pKi, system: UniProtKB P06401.
Sequence (P06401 whole entry): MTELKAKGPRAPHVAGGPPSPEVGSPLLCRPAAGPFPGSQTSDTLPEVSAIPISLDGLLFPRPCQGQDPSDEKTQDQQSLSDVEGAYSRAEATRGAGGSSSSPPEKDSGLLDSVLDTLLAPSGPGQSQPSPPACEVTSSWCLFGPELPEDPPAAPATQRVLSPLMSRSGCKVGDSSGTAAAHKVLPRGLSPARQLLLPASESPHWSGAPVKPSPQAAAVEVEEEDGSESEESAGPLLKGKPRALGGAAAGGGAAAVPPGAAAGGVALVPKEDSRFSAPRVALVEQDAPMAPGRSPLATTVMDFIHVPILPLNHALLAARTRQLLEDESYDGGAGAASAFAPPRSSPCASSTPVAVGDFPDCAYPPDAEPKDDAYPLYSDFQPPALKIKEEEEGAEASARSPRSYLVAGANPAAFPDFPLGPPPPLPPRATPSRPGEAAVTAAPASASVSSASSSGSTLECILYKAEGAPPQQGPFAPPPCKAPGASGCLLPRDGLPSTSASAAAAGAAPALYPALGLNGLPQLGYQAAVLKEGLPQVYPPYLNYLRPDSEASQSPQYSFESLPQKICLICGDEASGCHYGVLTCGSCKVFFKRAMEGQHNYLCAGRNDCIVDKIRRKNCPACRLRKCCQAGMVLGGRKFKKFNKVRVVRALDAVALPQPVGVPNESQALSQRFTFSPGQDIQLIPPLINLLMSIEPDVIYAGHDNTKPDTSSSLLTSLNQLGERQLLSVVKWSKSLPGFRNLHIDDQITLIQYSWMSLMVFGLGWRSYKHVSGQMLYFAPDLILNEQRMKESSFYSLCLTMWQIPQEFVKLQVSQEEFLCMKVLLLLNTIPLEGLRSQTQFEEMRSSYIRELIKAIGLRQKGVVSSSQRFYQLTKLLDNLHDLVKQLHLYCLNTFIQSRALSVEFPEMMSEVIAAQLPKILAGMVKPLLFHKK
Interpret pKi as the negative base-10 log of the concentration measured in mol/L.

Guide cases for pKi, answers given:
[[record]]
molecule = "C=C1CCCC(C)(C)[C@@H]1Cc1cc(OC)c(Br)cc1O"
metric_name = "pKi"
recorded_value = 7.47

[[record]]
molecule = "C=C1CC[C@@H](Br)C(C)(C)[C@@H]1Cc1cc(OC)c(Br)cc1O"
metric_name = "pKi"
recorded_value = 6.46

[[record]]
molecule = "COc1cc(CC2C(C)(C)CC(C)=CC23CC3)c(OC(C)=O)cc1Br (stereo unspecified)"
metric_name = "pKi"
recorded_value = 7.01

[[record]]
molecule = "C=C1C=C(C)CC(C)(C)C1Cc1ccc2nonc2c1 (stereo unspecified)"
metric_name = "pKi"
recorded_value = 7.06

[[record]]
molecule = "C=C1CCCC(C)(C)[C@H]1Cc1cc(OC)c(Br)cc1O"
metric_name = "pKi"
recorded_value = 6.66


Now consider a different molecule.
State, for UniProtKB P06401, measured pKi of the molecule listed here: `C=C1CC[C@@H](Br)C(C)(C)[C@H]1Cc1cc(OC)c(Br)cc1O` 6.31

====

- study target: Androgen receptor (Homo sapiens, UniProt P10275)
- Sequence (P10275 whole entry): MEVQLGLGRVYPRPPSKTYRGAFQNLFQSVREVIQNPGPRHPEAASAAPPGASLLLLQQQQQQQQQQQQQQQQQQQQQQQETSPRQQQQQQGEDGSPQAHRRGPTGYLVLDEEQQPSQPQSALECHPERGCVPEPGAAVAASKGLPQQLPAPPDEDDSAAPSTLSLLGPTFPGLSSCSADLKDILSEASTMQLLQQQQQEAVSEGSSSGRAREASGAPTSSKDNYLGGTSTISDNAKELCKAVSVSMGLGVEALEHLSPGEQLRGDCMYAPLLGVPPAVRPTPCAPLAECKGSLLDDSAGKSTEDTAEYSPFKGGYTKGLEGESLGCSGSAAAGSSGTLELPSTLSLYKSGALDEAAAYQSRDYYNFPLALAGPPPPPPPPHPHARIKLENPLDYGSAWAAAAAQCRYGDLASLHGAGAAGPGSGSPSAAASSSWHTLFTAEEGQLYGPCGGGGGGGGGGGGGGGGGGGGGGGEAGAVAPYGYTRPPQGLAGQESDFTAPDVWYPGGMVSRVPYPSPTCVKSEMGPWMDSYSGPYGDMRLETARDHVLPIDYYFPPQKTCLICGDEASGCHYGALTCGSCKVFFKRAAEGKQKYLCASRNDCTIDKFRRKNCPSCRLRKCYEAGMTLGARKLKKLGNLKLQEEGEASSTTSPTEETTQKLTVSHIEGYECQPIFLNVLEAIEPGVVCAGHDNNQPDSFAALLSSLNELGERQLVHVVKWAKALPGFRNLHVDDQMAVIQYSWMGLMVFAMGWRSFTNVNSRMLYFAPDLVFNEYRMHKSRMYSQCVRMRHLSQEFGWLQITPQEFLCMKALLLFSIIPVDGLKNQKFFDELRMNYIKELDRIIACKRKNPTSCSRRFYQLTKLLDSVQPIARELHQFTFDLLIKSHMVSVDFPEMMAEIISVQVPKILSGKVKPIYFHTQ
// Ki lookup, one value per entry
Answer in nM, number only, no unit symbol.

[[record]]
compound = "C=C1C[C@H](C)C[C@@H](C)[C@@H]1Cc1cc(OC)c(Br)cc1O"
metric_name = "Ki"
recorded_value = 1140

[[record]]
compound = "C=C1C[C@H](C)CC(C)(C)[C@@H]1Cc1cc(OC)c(Br)cc1O"
metric_name = "Ki"
recorded_value = 696

[[record]]
compound = "C=C1CCC[C@@H](C)[C@@H]1Cc1cc(OC)c(Br)cc1O"
metric_name = "Ki"
recorded_value = 570


State, for Androgen receptor (Homo sapiens, UniProt P10275), measured Ki of the compound listed here: `C=C1C=C(C)C[C@@H](C)[C@@H]1Cc1cc(OC)c(Br)cc1OC(C)=O` 1500

State, for Androgen receptor (Homo sapiens, UniProt P10275), measured Ki of the compound listed here: C=C1C=C(C)CC(C)(C)C1Cc1ccc([N+](=O)[O-])c(C)c1 (configuration not stated) 2700

State, for Androgen receptor (Homo sapiens, UniProt P10275), measured Ki of the compound listed here: `C=C1[C@@H](Cc2cc(OC)c(Br)cc2O)C(C)(C)CC[C@@]1(C)O` 6660

State, for Androgen receptor (Homo sapiens, UniProt P10275), measured Ki of the compound listed here: COc1cc(CC2C(C)(C)CC(C)=CC23CC3)c(OC(C)=O)cc1Br (configuration not stated) 3010

State, for Androgen receptor (Homo sapiens, UniProt P10275), measured Ki of the compound listed here: C=C1CCC(C)(C)C1Cc1cc(OC)c(Br)cc1O (configuration not stated) 1920

State, for Androgen receptor (Homo sapiens, UniProt P10275), measured Ki of the compound listed here: `C=C1C[C@H](CO)CC(C)(C)[C@@H]1Cc1cc(OC)c(Br)cc1O` 6810

State, for Androgen receptor (Homo sapiens, UniProt P10275), measured Ki of the compound listed here: C=C1C=C(C)CC(C)(C)C1C/C=C/c1cc(OC)c(Br)cc1O (configuration not stated) 2320

State, for Androgen receptor (Homo sapiens, UniProt P10275), measured Ki of the compound listed here: C=C1C=C(C)CC(C)(C)C1Cc1ccc([N+](=O)[O-])cc1 (configuration not stated) 6300

State, for Androgen receptor (Homo sapiens, UniProt P10275), measured Ki of the compound listed here: `C=C1CCC[C@H](C)[C@H]1Cc1cc(OC)c(Br)cc1O` 1640

State, for Androgen receptor (Homo sapiens, UniProt P10275), measured Ki of the compound listed here: C=C1C=CCC(C)(C)C1Cc1cc(OC)c(Br)cc1O (configuration not stated) 1520

State, for Androgen receptor (Homo sapiens, UniProt P10275), measured Ki of the compound listed here: `C=C1C(C)=CCC(C)(C)[C@@H]1Cc1cc(OC)c(Br)cc1OC(C)=O` 6390

State, for Androgen receptor (Homo sapiens, UniProt P10275), measured Ki of the compound listed here: C=C1C=C(C)CC(C)(C)C1Cc1cc(OC)c(Br)cc1O (configuration not stated) 1450

State, for Androgen receptor (Homo sapiens, UniProt P10275), measured Ki of the compound listed here: C=C1C=C(C)CC(C)(C)C1(O)Cc1ccc([N+](=O)[O-])cc1 (configuration not stated) 6450

State, for Androgen receptor (Homo sapiens, UniProt P10275), measured Ki of the compound listed here: C=C1C=C(C)CC(C)(C)C1Cc1cc(OC)c(Br)cc1OC(C)=O (configuration not stated) 1940

State, for Androgen receptor (Homo sapiens, UniProt P10275), measured Ki of the compound listed here: C=C1C=C(C)C(Cc2cc(OC)c(Br)cc2O)C(C)(C)C1 (configuration not stated) 1590
